Values of pKi for Bcl-2-like protein 2 (Homo sapiens), collected from a number of published sources:
For clarity, pKi is expressed as the negative log10 of concentration in mol/L.

# count of solved cases: 2
# compound, system.tested, data.value
data = [
    ("COC(=O)c1c(C)oc2c1c(C(c1ccncc1)N1CCN(C)CC1)c(O)c1ccccc12 (stereo not drawn)", "Bcl-2-like protein 2 (Homo sapiens)", 4.55),
    ("CC1(C)CCC(CN2CCN(c3ccc(C(=O)NS(=O)(=O)c4cnc(OCC5(F)CCN(C6COC6)CC5)c(Cl)c4)c(Oc4cnc5[nH]ccc5c4)c3)CC2)=C(c2ccc(Cl)cc2)C1", "Bcl-2-like protein 2 (Homo sapiens)", 6.78),
]

Consider the record given below.
Any idea what pKi was measured for Cc1c(S(C)(=O)=O)c(-c2cc(F)cc(N3CCN(c4ccc(NS(=O)(=O)c5ccc(N[C@H](CCN6CCC(C(=O)O)CC6)CSc6ccccc6)c(S(=O)(=O)C(F)(F)F)c5)cc4)CC3)c2)c(-c2ccc(Cl)cc2)n1C(C)C ? 9.45
